The reported measurements were obtained from paper PMC6171417.

Target: hCA II (Homo sapiens)
Construct: gene CA2; recombinant, obtained in-house as reported earlier; cytosolic
Assay: stopped-flow CO2 hydrase assay
Type: biochemical
From the text: stopped-flow CO2 hydrase assay on hCA II
Simple rule here: Ki less than 200 nM is YES, otherwise NO.

smiles.repr: CCn1c(=S)[nH]c2c(nnn2-c2ccc(S(N)(=O)=O)cc2)c1=N
class.label: NO

Next, consider the following compound.
Consider the compound N=c1c2nnn(-c3ccc(S(N)(=O)=O)cc3)c2[nH]c(=S)n1-c1ccc(S(=O)(=O)Nc2cnc3ccccc3n2)cc1 . Is its Ki strictly less than 200 nM?
NO

###

test system: HT29; experiment: cells; design: species or system NCI human tumour cell line panel; NCI one-dose anti-proliferative screen, human tumour cell line panel, growth inhibition percent (GI%); conditions: Homo sapiens, HT-29; growth inhibition (GI%), single dose
Quick reference for inhibition at 10 µM among some compounds
Write the value in % as a bare number.

Use these answered entries as a reference point.
smiles.repr: N#Cc1nnn(-c2ccc(S(N)(=O)=O)cc2)c1NCC(=O)c1ccccc1
result.value: 4.5

smiles.repr: N#Cc1nnn(-c2ccc(S(N)(=O)=O)cc2)c1N
result.value: 9.4

Dear colleague, please send me the reported inhibition at 10 µM for Nc1nc(=S)[nH]c2c1nnn2-c1ccc(S(N)(=O)=O)cc1 when you can.
10.8

Annotate the compound N#Cc1nnn(-c2ccc(S(N)(=O)=O)cc2)c1NS(=O)(=O)c1ccccc1 with its measured inhibition at 10 µM.
5.1
